assayTarget: UniProt O42275
Sequence (O42275 24-633): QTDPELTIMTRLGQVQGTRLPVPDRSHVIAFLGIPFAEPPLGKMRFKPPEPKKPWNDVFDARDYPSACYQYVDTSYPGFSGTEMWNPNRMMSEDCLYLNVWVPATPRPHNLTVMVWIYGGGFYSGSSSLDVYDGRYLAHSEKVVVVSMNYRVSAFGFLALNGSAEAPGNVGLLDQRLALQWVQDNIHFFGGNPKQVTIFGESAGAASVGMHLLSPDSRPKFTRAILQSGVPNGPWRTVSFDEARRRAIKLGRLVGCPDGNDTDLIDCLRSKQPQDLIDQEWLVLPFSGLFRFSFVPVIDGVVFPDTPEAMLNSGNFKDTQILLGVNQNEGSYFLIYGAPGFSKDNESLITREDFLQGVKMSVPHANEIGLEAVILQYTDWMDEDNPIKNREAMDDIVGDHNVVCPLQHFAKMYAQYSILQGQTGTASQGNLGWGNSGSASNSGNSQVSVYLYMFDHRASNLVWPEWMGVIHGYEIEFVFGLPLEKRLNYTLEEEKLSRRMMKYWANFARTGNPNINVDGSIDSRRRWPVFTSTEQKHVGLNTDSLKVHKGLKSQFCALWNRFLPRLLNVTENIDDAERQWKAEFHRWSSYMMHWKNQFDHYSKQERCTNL
testDescription: biochemical
conditions: read-out: % of inhibition at 25 μg/mL AChE
measurementName: inhibition at 25 µg/mL (%)
Only the number, expressed in %, is required.

Answered examples (4):
Enquiry: Entry under review: COc1cc([C@@H]2Oc3cc4c(cc3[C@H]2CO)-c2c(cc(O)cc2OC)CC4)ccc1O . Reported inhibition at 25 µg/mL?
Return: 5.7

Enquiry: Moving on to the next compound: COc1cc(O)c2c(c1Cc1ccc(O)cc1)CCc1cc(O)ccc1-2
Return: 15.2

Enquiry: Now consider COc1cccc(CCc2cc(O)cc(OC)c2Cc2ccc(O)cc2)c1 .
Return: 16.3

Enquiry: Please answer likewise for COc1c(Cc2ccc(O)cc2)c(O)cc2c1-c1ccc(O)cc1CC2
Return: 9.6

Now for the compound whose inhibition at 25 µg/mL we want.
Enquiry: Which inhibition at 25 µg/mL is listed for COc1ccc2c(ccc3c(Cc4ccc(O)cc4)c(O)cc(OC)c32)c1O ?
Return: 20.4
